Recorded values, source patent US20250188176A1.

- target: T1, Extracellular domain (ECD) of the canine IL-4 receptor alpha-V5 epitope-AviTag-His Tag (canine)
- T1 construct: monomeric form isolated by size exclusion; also called canine IL-4RA-V5-Avi-His; canine IL-4RA
- T1 chain: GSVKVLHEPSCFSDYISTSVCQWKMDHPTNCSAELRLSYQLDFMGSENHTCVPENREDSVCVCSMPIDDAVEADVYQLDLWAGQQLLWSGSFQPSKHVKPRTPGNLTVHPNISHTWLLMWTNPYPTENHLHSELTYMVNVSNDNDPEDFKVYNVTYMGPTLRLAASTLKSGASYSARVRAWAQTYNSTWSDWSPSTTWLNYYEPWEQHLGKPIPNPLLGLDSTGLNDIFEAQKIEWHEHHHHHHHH
- assay-overview: SPR, Fab-SASA captured on BSA;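 further: biacore T200 SPR, Fab-SASA variants from E. coli conditioned medium captured on BSA-coated CM5 chip, canine IL-4RA injected 120 s then 420 s dissociation, 1:1 model fit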
The binders listed here are annotated with their pKd.
Remember, pKd is on a log scale: it is -log10 of the molar concentration.

// query pKd value for entry TB640_005 Fab-SASA VL-T102S (Fab, V domains shown, not shown: SASA tag then His-tag) VH: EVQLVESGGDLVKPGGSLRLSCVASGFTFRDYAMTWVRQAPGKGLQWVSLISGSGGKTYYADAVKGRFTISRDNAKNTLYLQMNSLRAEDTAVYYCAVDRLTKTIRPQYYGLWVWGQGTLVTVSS VL: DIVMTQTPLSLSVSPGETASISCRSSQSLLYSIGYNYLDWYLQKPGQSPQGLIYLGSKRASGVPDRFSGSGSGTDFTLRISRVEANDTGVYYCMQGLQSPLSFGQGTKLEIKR
8.18

Can you share its pKd? I mean this binder: TB640_005 Fab-SASA VL-S57T (Fab, V domains shown, not shown: SASA tag then His-tag) VH: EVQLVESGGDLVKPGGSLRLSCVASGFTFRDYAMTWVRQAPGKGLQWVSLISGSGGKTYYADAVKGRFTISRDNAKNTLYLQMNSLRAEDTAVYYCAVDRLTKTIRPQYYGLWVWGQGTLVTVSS VL: DIVMTQTPLSLSVSPGETASISCRSSQSLLYSIGYNYLDWYLQKPGQSPQGLIYLGTKRASGVPDRFSGSGSGTDFTLRISRVEANDTGVYYCMQGLQSPLTFGQGTKLEIKR
7.82

Now look at this entry.
Need pKd, item TB640_005 Fab-SASA VL-L30A (Fab, V domains shown, not shown: SASA tag then His-tag) VH: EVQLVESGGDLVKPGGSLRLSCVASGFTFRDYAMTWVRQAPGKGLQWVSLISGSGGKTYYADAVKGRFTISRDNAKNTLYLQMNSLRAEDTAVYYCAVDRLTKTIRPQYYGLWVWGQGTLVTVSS VL: DIVMTQTPLSLSVSPGETASISCRSSQSLAYSIGYNYLDWYLQKPGQSPQGLIYLGSKRASGVPDRFSGSGSGTDFTLRISRVEANDTGVYYCMQGLQSPLTFGQGTKLEIKR
7.56
